- Target or test system: Histamine H3 receptor (Homo sapiens)
- Sequence (Q9Y5N1 whole entry): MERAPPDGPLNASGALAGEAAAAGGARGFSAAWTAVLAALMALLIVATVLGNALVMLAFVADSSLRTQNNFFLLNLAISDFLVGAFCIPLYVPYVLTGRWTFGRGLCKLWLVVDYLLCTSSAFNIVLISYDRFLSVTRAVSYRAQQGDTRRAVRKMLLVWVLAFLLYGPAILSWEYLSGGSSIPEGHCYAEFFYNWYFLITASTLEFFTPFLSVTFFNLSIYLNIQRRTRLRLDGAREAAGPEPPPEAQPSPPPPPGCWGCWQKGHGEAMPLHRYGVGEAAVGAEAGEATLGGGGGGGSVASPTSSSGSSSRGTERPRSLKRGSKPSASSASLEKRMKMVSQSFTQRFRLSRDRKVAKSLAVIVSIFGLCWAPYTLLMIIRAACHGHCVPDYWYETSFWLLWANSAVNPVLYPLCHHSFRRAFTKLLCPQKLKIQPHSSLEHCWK
Please go through the items and note down their Ki.
The answer is to be given in nM; state only the numeric part.

Any idea what its Ki is? The compound is Clc1ccc2c(c1)N=C(N1CCN(Cc3ccc(OCCCN4CCCCC4)cc3)CC1)c1ccccc1N2
3.27

Any idea what its Ki is? The compound is CN(CCC=C1c2ccccc2CCc2ccccc21)C(=O)c1ccc(OCCCN2CCCCC2)cc1
3.5

Any idea what its Ki is? The compound is CN(CCC=C1c2ccccc2CCc2ccccc21)Cc1ccc(OCCCN2CCCCC2)cc1
0.25

Where do these numbers come from? They come from ChEMBL document CHEMBL1149085.
